System: Toxoplasma gondii RH-2F tachyzoites
measurement_protocol: microbe, parasite or virus in culture
assay_conditions: 72 h, read-out: Parasite inhibition (%) mean, preliminary screen of compound library, mean
Assign inhibition of growth at 5 µM to each entry below.
Give bare numbers, in %.

[
  {
    "compound": "CC(=O)Nc1nc2c(Oc3cc(-c4ccc(C(F)(F)F)cc4)ncn3)cccc2s1",
    "number": 0.6
  },
  {
    "compound": "CNC(=O)c1nn(C)c2c1C(C)(C)Cc1cnc(Nc3ccc(N4CCN(C)CC4)cc3)nc1-2",
    "number": 16.4
  },
  {
    "compound": "Cc1cnc(NC(=O)Nc2cc(Br)c(C)cc2OC[C@@H]2CNCCO2)cn1",
    "number": 22.7
  },
  {
    "compound": "CNC1CCCN(c2c(F)cc3c(=O)c(C(=O)O)cn(C4CC4)c3c2OC)C1 (stereo not drawn)",
    "number": 71.8
  },
  {
    "compound": "CN(C)C(=O)[C@H](O)[C@H](Cc1ccccc1)NC(=O)c1cc2cc(Cl)ccc2[nH]1",
    "number": 28.6
  }
]

Now for the compound whose inhibition of growth at 5 µM we want.
Task: Provide the reported inhibition of growth at 5 µM (system: Toxoplasma gondii RH-2F tachyzoites) for C[C@@H]1CC[C@@]2(OC1)O[C@H]1C[C@H]3[C@@H]4CC=C5C[C@H](O[C@@H]6O[C@@H](CO)[C@@H](O[C@@H]7O[C@@H](C)[C@H](O)[C@@H](O)[C@@H]7O)[C@H](O)[C@H]6O[C@@H]6O[C@@H](C)[C@H](O)[C@@H](O)[C@H]6O)CC[C@]5(C)[C@@H]4CC[C@]3(C)[C@@H]1[C@H]2C [Dioscin (Collettiside III)]
Result: 4.8
